Recorded values, source patent US20250171437A1.

Target: human PAH with the R408W mutation (A375 R408W cells) (Homo sapiens, UniProt P00439, R408W)
Construct: expressed in transfected cells
Sequence (P00439 1-452 R408W): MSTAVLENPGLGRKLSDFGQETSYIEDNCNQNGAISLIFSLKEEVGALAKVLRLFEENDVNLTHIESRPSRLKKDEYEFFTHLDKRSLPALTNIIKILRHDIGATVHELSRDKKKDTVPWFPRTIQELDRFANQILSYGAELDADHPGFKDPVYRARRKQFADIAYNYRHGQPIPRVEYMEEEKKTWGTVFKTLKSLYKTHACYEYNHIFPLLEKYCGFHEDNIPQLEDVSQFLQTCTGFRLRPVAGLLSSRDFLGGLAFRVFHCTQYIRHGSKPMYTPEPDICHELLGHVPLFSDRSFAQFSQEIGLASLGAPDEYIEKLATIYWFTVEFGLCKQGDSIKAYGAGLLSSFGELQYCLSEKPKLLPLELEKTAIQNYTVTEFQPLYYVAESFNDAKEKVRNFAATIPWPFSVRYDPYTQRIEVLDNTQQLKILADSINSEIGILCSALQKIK
Assay: Cell Based Phenylalanine Flux Assay
Details: A375 R408W cells; 24 hrs with compound, then 20 μM sepiapterin and 800 μM 13C9,15N-Phenylalanine for 4 hours; 13C-Tyrosine by LC-MS; average where tested multiple times
Documented AC50 across a set of molecules

Example entries and their recorded answers appear below.
INSERT INTO assay_data (structure_as_smiles, tgt, experimental_result) VALUES
  ('O=C(c1cnn2cc(-c3ccccn3)ccc12)N1CCc2[nH]cnc2[C@H]1c1nc2cc(F)ccc2o1', 'human PAH with the R408W mutation (A375 R408W cells) (Homo sapiens, UniProt P00439, R408W)', '0.5 to 1 µM'),
  ('O=C(c1ocnc1C(F)(F)F)N1CCc2[nH]cnc2[C@@H]1c1nc2cc(Br)ccc2o1', 'human PAH with the R408W mutation (A375 R408W cells) (Homo sapiens, UniProt P00439, R408W)', '≤ 0.5 µM'),
  ('Cn1cc(-c2ccc3c(C(=O)N4CCc5[nH]cnc5[C@@H]4c4nc5cc(F)ccc5o4)cnn3c2)cn1', 'human PAH with the R408W mutation (A375 R408W cells) (Homo sapiens, UniProt P00439, R408W)', '≥ 5 µM'),
  ('Cn1cc(-c2nc(C(F)(F)F)c(C(=O)N3CCc4[nH]cnc4[C@@H]3c3nc4cccc(F)c4o3)o2)cn1', 'human PAH with the R408W mutation (A375 R408W cells) (Homo sapiens, UniProt P00439, R408W)', '≤ 0.5 µM'),
  ('O=C(c1nnc(-c2ccc(F)cn2)o1)N1CCc2[nH]cnc2[C@@H]1c1nc2cc(F)ccc2o1', 'human PAH with the R408W mutation (A375 R408W cells) (Homo sapiens, UniProt P00439, R408W)', '1 to 5 µM');

query: Entry under review: CC(C)(O)c1nc(C(F)F)c(C(=O)N2CCc3[nH]cnc3[C@H]2c2nc3c(OC(F)(F)F)cccc3o2)o1 . Reported AC50?
result: ≤ 0.5 µM

query: Entry under review: O=C(c1ocnc1C(F)(F)F)N1CCc2[nH]cnc2[C@H]1c1nc2cccc(F)c2o1 . Reported AC50?
result: ≤ 0.5 µM
